This listing pairs variants with measured abundance fitness.
B1: Ankyrin repeat and SAM domain-containing protein 6, residues 774 to 836; numbered along this chain, Q68DC2 (parent)
chain: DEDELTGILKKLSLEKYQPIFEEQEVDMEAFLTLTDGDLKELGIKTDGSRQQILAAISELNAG

# Variants of: B1
# test_protocol: abundance fitness (aPCA) (normalised: wild type 0, dead -1); higher = more abundant; growth selection in yeast, the domain comes from the species named
# experimental_context: Homo sapiens
// return a plain number; no unit text

DEDELTGILKKLSLEKYQPIFEEQEVDMEAFLTLTDGDLKELGIKTDGSLQQILAAISELNAG [R50L] = -0.623
DEDELTGILKKLSLEKYQPIFEEQEVDMEAFLTLTDGDLKELGIKTDGSRQQILAAISELPAG [N61P] = -0.461
DEDELTGILKKLSLEKYQPIFEEQEVDMEEFLTLTDGDLKELGIKTDGSRQQILAAISELNAG [A30E] = -0.073
DEDELTGILKKLSLEKYQPIFEEQEVDMEAFLTLTDGDTKELGIKTDGSRQQILAAISELNAG [L39T] = -0.667
DEDELTGILKKLSLEKYQPIFEEQEVDMEAFLTPTDGDLKELGIKTDGSRQQILAAISELNAG [L34P] = -0.561

// DEDELTGILKKLSLEKMQPIFEEQEVDMEAFLTLTDGDLKELGIKTDGSRQQILAAISELNAG [Y17M] : abundance fitness value = 0.031

// DEDELTGILKKLSLEKYQPIFEEPEVDMEAFLTLTDGDLKELGIKTDGSRQQILAAISELNAG [Q24P] : abundance fitness value = -0.925

// DEDELTGILKKLSLEKYQPIIEEQEVDMEAFLTLTDGDLKELGIKTDGSRQQILAAISELNAG [F21I] : abundance fitness value = -0.615

// DEDELTGILKKLSLEKYQPIFEEQEYDMEAFLTLTDGDLKELGIKTDGSRQQILAAISELNAG [V26Y] : abundance fitness value = -0.327

// DEDELTGILKKLSLEKYQPIFEEQEVDMEAFLTLTDGDLKELGIKTDGSRQQILAAISTLNAG [E59T] : abundance fitness value = -0.106

// DNDELTGILKKLSLEKYQPIFEEQEVDMEAFLTLTDGDLKELGIKTDGSRQQILAAISELNAG [E2N] : abundance fitness value = 0.047
